# Assay Comment: Cell Viability - LYMP2-009 (AID 968);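 also: cells exposed to compound for 24 h at 37 °C; nearly all actives have a fitted effect of over 55% in size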
# Particulars: LYMP2-009 lymphoblastoid cell viability; series mostly up to 92.2 µM
Records with an inconclusive call do not appear. Activity calls are given as the source filed them. Calls follow the shape of the dose curve; as a rule, active = well fitted cell-killing curve with a large enough effect; inconclusive = small, poorly fitted or top-dose-only effect; inactive = flat fitted curve, though single readings scatter.
Outcome Measure: outcome

Here is how some compounds turned out for outcome.
- Compound: "c1ccc(Nc2ccc3ccccc3c2)cc1"
  outcome: "inactive"
- Compound: "COC1=CC(=O)OC(CCc2ccc3c(c2)OCO3)C1 (stereo unspecified)"
  outcome: "inactive"
- Compound: "Cc1ccccc1O"
  outcome: "inactive"
- Compound: "COC(=O)c1ccccc1C(=O)OC"
  outcome: "inactive"
- Compound: "Oc1c(Cl)c(Cl)c(Cl)c(Cl)c1Cl"
  outcome: "inactive"

Proceed to the following item.
// query Let me know recorded outcome for `Oc1ccccc1Cl` , thanks.
// result inactive

Numbers sourced from PubChem BioAssay (NCATS).
